System: 1b_Huh-Luc/Neo-ET cell line (bicistronic genotype 1b replicon in Huh 7 cells)
ASSAY INFO: HCV 1b replicon assay, luciferase readout
Type: cell-based, HCV genotype 1b
CONDITION DESCRIPTION: Hepatitis C virus, Huh-7, class symbol; HCV genotype 1b replicon; read-out: Inhibition of HCV genotype 1b replicon
pEC50: −log10 of the molar value.
MEASUREMENT LABEL: pEC50

INPUT: # input compound: CNC(=O)c1c(-c2ccc(F)cc2)oc2cc3c(cc12)[C@H]1C[C@H]1CCN3S(C)(=O)=O (single isomer, unassigned) [Compound B133] ; wanted: its pEC50
OUTPUT: < 6.00

INPUT: Given the compound CNC(=O)c1c(-c2ccc(F)cc2)oc2cc3c(cc12)C(C(F)(F)F)OCCN3S(C)(=O)=O (stereo not shown) [Compound B148] , what is its reported pEC50?
OUTPUT: > 8.00

INPUT: Return reported pEC50; argument: CNC(=O)c1c(-c2ccc(F)cc2)oc2cc3c(cc12)C(C)N(CC(F)(F)F)CCN3S(C)(=O)=O (stereo not shown) [Compound B107]
OUTPUT: > 8.00

INPUT: What value of pEC50 has been reported for the following compound? CNC(=O)c1c(-c2ccc(Oc3ccc(F)cc3)cc2)oc2cc3c(cc12)[C@H](C)O[C@H](COC(=O)CN(C)C)CN3S(C)(=O)=O [Compound B239]
OUTPUT: > 8.00

====

Tested on: 1b_Huh-Luc/Neo-ET cell line (bicistronic genotype 1b replicon in Huh 7 cells)
ASSAY INFO: HCV 1b replicon assay, luciferase readout
Format: cell-based, HCV genotype 1b
CONDITION DESCRIPTION: Hepatitis C virus, Huh-7, read-out: Inhibition of HCV genotype 1b replicon, class symbol; HCV genotype 1b replicon
Procedure: Biological activity of the compounds of the invention was determined using an HCV replicon assay. The 1b_Huh-Luc/Neo-ET cell line persistently expressing a bicistronic genotype 1b replicon in Huh 7 cells was obtained from ReBLikon GMBH. This cell line was used to test compound inhibition using luciferase enzyme activity readout as a measurement of compound inhibition of replicon levels. […] The EC50 value was determined using GraphPad Prism and the following equation: […]
MEASUREMENT LABEL: EC50

INPUT: For the compound shown here, CNC(=O)c1c(-c2ccc(Oc3ccc(F)c(F)c3)cc2)nn2cc3c(cc12)C(C)CCCN3S(C)(=O)=O (stereo not shown) [B97 (3)] , give the reported EC50.
OUTPUT: 10 to 100 nM

====

SYSTEM TESTED: HCV NS5B C316Y mutant (Hepatitis C virus genotype 1b, UniProt Q9WMX2, C2735Y)
Construct: HCV NS5B C316Y or S365A mutant as indicated; expressed in transfected cells
Sequence (Q9WMX2 2420-3010 C2735Y): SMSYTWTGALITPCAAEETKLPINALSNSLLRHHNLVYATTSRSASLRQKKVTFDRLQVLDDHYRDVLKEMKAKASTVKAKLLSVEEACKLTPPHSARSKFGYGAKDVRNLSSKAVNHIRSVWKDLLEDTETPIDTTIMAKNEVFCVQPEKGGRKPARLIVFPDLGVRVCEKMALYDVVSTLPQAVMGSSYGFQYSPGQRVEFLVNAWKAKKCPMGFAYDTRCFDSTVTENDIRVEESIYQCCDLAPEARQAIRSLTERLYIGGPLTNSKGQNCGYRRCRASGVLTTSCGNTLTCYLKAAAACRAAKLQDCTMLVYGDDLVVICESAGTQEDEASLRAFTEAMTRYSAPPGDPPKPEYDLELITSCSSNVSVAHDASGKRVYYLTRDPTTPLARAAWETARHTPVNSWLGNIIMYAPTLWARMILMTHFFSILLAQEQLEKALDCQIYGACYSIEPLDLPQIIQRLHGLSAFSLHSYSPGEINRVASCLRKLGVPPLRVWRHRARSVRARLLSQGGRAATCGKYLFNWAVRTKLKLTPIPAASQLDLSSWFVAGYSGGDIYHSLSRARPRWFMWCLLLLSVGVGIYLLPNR
ASSAY INFO: Activity against HCV NS5B C316Y mutant
Format: cell-based
CONDITION DESCRIPTION: class symbol; C316Y mutant
MEASUREMENT LABEL: Inhibition of HCV N55B C316Y mutant

Past entries and their recorded results:
# COMPOUND, MEASUREMENT LABEL, OBSERVED RESULT
data = [
    ("CNC(=O)c1c(-c2ccc(F)cc2)oc2cc3c(cc12)[C@H](C)O[C@H](CS(C)(=O)=O)CN3S(C)(=O)=O", "Inhibition of HCV N55B C316Y mutant", "†††"),
    ("CNC(=O)c1c(-c2ccc(F)cc2)oc2cc3c(cc12)[C@@H]1C[C@@H]1CCN3S(C)(=O)=O (single isomer, unassigned)", "Inhibition of HCV N55B C316Y mutant", "†††"),
    ("CNC(=O)c1c(-c2ccc(Oc3ccc(F)cc3)cc2)oc2cc3c(cc12)[C@H](C)O[C@H](CS(C)(=O)=O)CN3S(C)(=O)=O", "Inhibition of HCV N55B C316Y mutant", "†††"),
    ("CNC(=O)c1c(-c2ccc(F)cc2)oc2cc3c(cc12)[C@H](C)NC(=O)CN3S(C)(=O)=O (single isomer, unassigned)", "Inhibition of HCV N55B C316Y mutant", "†††"),
]

INPUT: Consider the compound CNC(=O)c1c(-c2ccc(Oc3ccc(F)cc3)cc2)oc2cc3c(cc12)[C@H](C)n1nncc1CN3S(C)(=O)=O (single isomer, unassigned) and give its measured Inhibition of HCV N55B C316Y mutant.
OUTPUT: †††

INPUT: Dear colleague, I am looking for the recorded Inhibition of HCV N55B C316Y mutant of the following compound: CNC(=O)c1c(-c2ccc(Oc3ccc(F)cc3)cc2)oc2cc3c(cc12)[C@H](C)O[C@H](CO)CN3S(C)(=O)=O
OUTPUT: †††

INPUT: Any idea what its Inhibition of HCV N55B C316Y mutant is? The compound is CNC(=O)c1c(-c2ccc(F)cc2)oc2cc3c(cc12)[C@H](C)n1nncc1CN3S(C)(=O)=O (single isomer, unassigned)
OUTPUT: †††
